Provenance of the data: ChEMBL document CHEMBL1949588

# METHOD: Metabolic stability in potassium oxonate treated Sprague-Dawley rat hyperuricemic model blood assessed as compound remaining at 22 to 30 MBq, iv after 30 mins by radiometric HPLC analysis
# Type: ADME, organism-based
# EXPERIMENTAL SETUP: read-out: Stability

{"columns": ["SMILES NOTATION", "remaining at 0.5 h / %"],
 "data": [
  ["O=c1[nH]c(=O)c2[nH][11c](=O)[nH]c2[nH]1", 100]
]}
